target: Follistatin (Homo sapiens) (UniProt P19883); test: FST protein binding to printed compounds – biochemical, small-molecule microarray, 635/667 nm fluorescence, primary screen (AID 1132); conditions: 635 nm fluorescence, higher = more signal
Sequence (P19883 whole entry, looked up): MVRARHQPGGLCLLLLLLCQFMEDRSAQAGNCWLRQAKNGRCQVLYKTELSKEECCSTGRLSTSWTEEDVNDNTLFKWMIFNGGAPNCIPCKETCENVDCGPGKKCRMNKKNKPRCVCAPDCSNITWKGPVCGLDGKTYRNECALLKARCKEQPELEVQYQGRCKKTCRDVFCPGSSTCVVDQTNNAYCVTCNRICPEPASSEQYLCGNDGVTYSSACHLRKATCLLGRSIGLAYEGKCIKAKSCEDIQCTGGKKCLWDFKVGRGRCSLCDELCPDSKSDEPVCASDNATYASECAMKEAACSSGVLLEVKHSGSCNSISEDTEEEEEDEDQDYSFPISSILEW
parameter.measured: composite z-score

NC(=O)NCC#Cc1ccc2c(c1)[C@]1(C(=O)N2)[C@H](c2ccc(OCCO)cc2)N2[C@H](c3ccccc3)[C@H](c3ccccc3)OC(=O)[C@H]2[C@@H]1C(=O)N1CCN(c2ncccn2)CC1 ... 1.34
C#CCNS(=O)(=O)N(C)C ... 0.103
Cc1ccccc1C(O)C1C=CC2C(=O)N(Cc3ccccc3)C(=O)C2N1n1cnnc1 (centres undefined) ... 1.07
C=CCC(OC(C)=O)[C@@H]1[C@@H](N(Cc2ccc(-c3ccccc3)cc2)C(=O)Cc2ccc(OC)cc2)c2cc(OCCCO)ccc2N1C(=O)c1ccc(-c2ccccc2)cc1 (some centres undefined) ... 0.409

###

experiment: small molecules captured by biotinylated probe aFSTL3 – biochemical, small-molecule microarray, fluorescence 635/667, stem cell growth factor project, primary screen (AID 1064); conditions: higher = more signal;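 further: measures binding of the biotinylated anti-FSTL3 antibody to printed compounds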
Range-based classes on measured composite z-score: lower level = under -0.08, middle level = from -0.08 up to 0.4, upper level = 0.4 and over

O=C1N(CCS(=O)(=O)c2ccccc2)Cc2ccccc2C[C@@]12COC(c1ccc(OCCCO)cc1)=N2 ... upper level
CC(C)CCC[C@@H](C)[C@H]1CC[C@@]2(C)C3=C(CC[C@]12C)[C@@]1(C)CC[C@H](OC(=O)c2ccc(N)cc2)C(C)(C)C1CC3 (some centres undefined) ... lower level
COCCCNC(=O)[C@]1(Cc2ccccc2CN=[N+]=[N-])N=C(c2ccc(OCCCO)cc2)O[C@@H]1c1ccccc1CN=[N+]=[N-] ... upper level
NC(=O)[C@H]1[C@@H]2C(=O)O[C@@H](c3ccccc3)[C@@H](c3ccccc3)N2[C@@H](c2ccc(O)cc2)[C@]12C(=O)Nc1ccc(C#CC3(O)CCCCCC3)cc12 ... middle level
C=CCN1C(=O)[C@@]2(O[C@@H](CCn3cc([C@H](O)c4ccccc4)nn3)[C@H]([Si](C)(C)c3ccc(OC)cc3)[C@H]2C)c2cc(NC(=O)c3ccc(OC)cc3)ccc21 ... middle level
COCCCNC(=O)[C@@]1(C)c2ccccc2C(=O)N(c2ccc(C)cn2)[C@H]1c1ccc(CO)cc1 ... lower level
Cc1ccc(N2C(=O)c3ccccc3[C@](C)(C(=O)NC(C)C)[C@@H]2c2ccc(CO)cc2)nc1 ... upper level
CCCCC(=C=CC[C@H](O)c1cccc(OCCO)c1)C[C@H](O)COCc1ccccc1 ... lower level
C=C[C@H](C)[C@H](OC(=O)Nc1ccc(SC)cc1)c1ccc(O)c2ccccc12 ... middle level
C=CCC(OC(C)=O)[C@@H]1[C@@H](N(Cc2cc3ccccc3o2)C(=O)Cc2ccc(OC)cc2)c2cc(OCCCO)ccc2N1C(=O)c1ccc(-c2ccccc2)cc1 (some centres undefined) ... middle level
CN(C)C(=O)[C@@]1(Cc2ccccc2N=[N+]=[N-])N=C(c2ccc(OCCCO)cc2)O[C@H]1c1ccccc1N=[N+]=[N-] ... upper level
N#Cc1ccc(NN2C(C(O)c3ccccc3)C=CC3C(=O)N(c4ccccc4)C(=O)C32)cc1 (centres undefined) ... middle level
COc1ccc([Si](C)(C)[C@H]2[C@H](CCO)O[C@@]3(C(=O)N(Cc4cccc(N5CCOC5=O)c4)c4ccccc43)[C@@H]2C)cc1 ... lower level

###

Measured composite z-score, listed per entry for reference.
test system: Human papillomavirus type 1a protein E7 (residues 44-93); assay: small molecules binding HPV E7 44-93 – biochemical, small-molecule microarray, residues 44-93, 635 nm fluorescence, primary screen (AID 1108); settings: fluorescence 635 nm, higher = more signal;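 further: E7 fragment applied at 1 µg/mL in TBST for 1 h at 4 C; score combines spot fluorescence with its signal to noise ratio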
parameter.measured: composite z-score

COCC(=C=CC[C@@H](O)c1ccccc1OCCO)C[C@@H](O)COCc1ccccc1 ... -0.0562
C=C(/C(=C/C[C@@H](OC(=O)c1ccncc1)c1cccc(OCCO)c1)c1cc(C(=O)OC)ccc1OC)C(C)C ... 0.903
O=C1O[C@H](c2ccccc2)[C@H](c2ccccc2)N2[C@H]1[C@@H](C(=O)NC[C@H](O)c1ccccc1)[C@]1(C(=O)Nc3ccccc31)[C@H]2c1ccccc1OCCO ... 1.4
COC(=O)[C@@]1(Cc2ccc(F)cc2)[C@H]2c3cc(C(=O)N(C)C)n(Cc4ccc(C)c(F)c4F)c3C[C@H]2CN1C(=O)c1ccccc1 ... 1.33
COc1ccc([Si](C)(C)[C@@H]2[C@@H](CCO)O[C@]3(C(=O)N(Cc4ccc(N5C(=O)c6ccccc6Oc6ccccc65)cc4)c4ccccc43)[C@H]2C)cc1 ... -0.0261
CC(=O)NCCCC[C@@H]1NC(=O)[C@H]2C[C@@H](C(=O)NCCCCCN)[C@@H](c3cccc(OCCO)c3)N2C1=O ... 0.783
COCCCNC(=O)[C@@]1(C)c2ccccc2C(=O)N(c2ccc(C)cn2)[C@H]1c1ccc(CO)cc1 ... -0.588
CC(C)(C)OC(=O)CC[C@@]1(C(=O)N2CCCCC2)N=C(c2ccc(OCCCO)cc2)O[C@@H]1c1ccccc1CN=[N+]=[N-] ... 1.46
CC(C)CN1C(=O)[C@@]2(Cc3ccccc31)c1ccccc1C(=O)N(Cc1ccccc1)[C@H]2c1ccc(CO)cc1 ... -0.587
COC(=O)C(CC#Cc1ccc2c(c1)[C@]1(C(=O)N2)[C@H](c2ccc(O)cc2)N2[C@H](c3ccccc3)[C@H](c3ccccc3)OC(=O)[C@H]2[C@@H]1C(=O)O)C(=O)OC ... 0.69
COCCOC(=O)N1C(=O)[C@@]2(c3cc(C#CC4(O)CCCCCC4)ccc31)[C@H](C(=O)NC[C@H](O)c1ccccc1)[C@H]1C(=O)O[C@H](c3ccccc3)[C@H](c3ccccc3)N1[C@@H]2c1ccc(OCCO)cc1 ... 1.38
COC(=O)[C@]1(Cc2ccccc2CN=[N+]=[N-])N=C(c2ccc(OCCCO)cc2)O[C@@H]1c1ccccc1 ... -1.61
C=CCNC(=O)[C@H]1[C@@H]2C(=O)O[C@@H](c3ccccc3)[C@@H](c3ccccc3)N2[C@@H](c2ccc(OCCO)cc2)[C@]12C(=O)N(C(=O)OCCOC)c1ccc(C#CC3=CCCCC3)cc12 ... -0.192

###

test system: Plasmodium falciparum Sir2 (PF13_0152, Sir2A); test: Plasmodium falciparum Sir2A binding compounds – biochemical, small-molecule microarray, 635 nm fluorescence, primary screen (AID 1098); details: fluorescence 635 nm, higher = more signal;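 further: score merges spot fluorescence intensity with its signal-to-noise ratio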
Threshold check on composite z-score: at or above 0.6 gives t, strictly below gives f.

CCOC(=O)C[C@H]1[C@H](OC(=O)Cc2ccc3c(c2)OCO3)[C@@H](NC(=O)c2ccccc2)c2cc(OCCCO)ccc2N1C(=O)c1ccc2ccccc2n1 ... f
O=C1O[C@H](c2ccccc2)[C@H](c2ccccc2)N2[C@H]1[C@@H](C(=O)NC[C@H](O)c1ccccc1)[C@]1(C(=O)Nc3ccccc31)[C@H]2c1ccccc1OCCO ... t
CCOC(=O)C1=CC[C@@H](c2ccccc2)N(S(=O)(=O)c2ccc(C)cc2)[C@H]1C=C(C)C ... t
O=C(C=C(CC(O)c1cccc(Cl)c1)OCCF)OCCF (stereo not drawn) ... t
CC(C)NC(=O)[C@@]1(Cc2ccccc2I)c2ccccc2C(=O)N(Cc2ccccc2C(F)(F)F)[C@H]1c1ccc(CO)cc1 ... t
COCCOC(=O)N1C(=O)[C@@]2(c3cc(C#CCC(C(=O)OC)C(=O)OC)ccc31)[C@H](C(=O)N1CCCCCCC1)[C@H]1C(=O)O[C@H](c3ccccc3)[C@H](c3ccccc3)N1[C@@H]2c1ccc(O)cc1 ... t
CC(C)C[C@H]1NC(=O)[C@H](C)NC(=O)[C@@]23C(=O)N[C@@H](Cc4ccccc4)C2[C@H](C)[C@@]2(C)O[C@H]2C3/C=C/C/C=C\CNC1=O (stereo partly drawn) ... f
Cc1ccc(S[C@]2(C(=O)O)CC(=O)N(C3CCCCC3)[C@@H]2c2ccc(CO)cc2)cc1 ... t
Cc1ccc(F)cc1S(=O)(=O)N[C@@H]1CCN(C(=O)c2ccc(OC(C)C)cc2)C1 ... f
COCCOC(=O)N1C(=O)[C@@]2(c3cc(C#CCCO)ccc31)[C@H](C(=O)NC[C@H](O)c1ccccc1)[C@H]1C(=O)O[C@H](c3ccccc3)[C@H](c3ccccc3)N1[C@@H]2c1ccccc1OCCO ... f
C=CCN1C(=O)[C@@]2(O[C@@H](CCO)[C@H]([Si](C)(C)c3ccc(OC)cc3)[C@H]2C)c2cc(NC(=O)[C@H](C)O)ccc21 ... t
C=CCOC(=O)[C@@H]1[C@H]2C(=O)O[C@H](c3ccccc3)[C@H](c3ccccc3)N2[C@H](c2ccc(OCCOC(=O)[C@@H]3C[C@@H]4C(=O)N5CCC[C@H]5C(=O)N4[C@@H]3c3cccc(OCCO)c3)cc2)[C@@]12C(=O)Nc1ccc(I)cc12 ... t
C=CCOc1ccc([C@@H]2CC=C(C(=O)OCC)[C@H](c3cccc(Br)c3)N2S(=O)(=O)c2ccc(C)cc2)cc1 ... f
O=C(O)[C@@]1(Cc2ccccc2)COC(c2ccc(OCCCO)cc2)=N1 ... t
CCN(CC)c1ccc(N2CC=CC34O[C@@H]5/C=C\CCCOC(=O)C5[C@H]3C(=O)N(CCCCCO)[C@@H]4C2=O)cc1 (stereo partly drawn) ... t
CN(C)C(=O)[C@]1(Cc2ccccc2N=[N+]=[N-])N=C(c2ccc(OCCCO)cc2)O[C@@H]1c1ccccc1CN=[N+]=[N-] ... f
NC(=O)NCC#Cc1ccc2c(c1)[C@]1(C(=O)N2)[C@H](c2ccc(OCCO)cc2)N2[C@H](c3ccccc3)[C@H](c3ccccc3)OC(=O)[C@H]2[C@@H]1C(=O)N1CCN(c2ncccn2)CC1 ... t
O=C1NC(=O)C2C1C=CC(C(O)c1ccc3c(c1)OCO3)N2Nc1ccc(Cl)cc1Cl (stereo not drawn) ... t
C#CCOC(=O)N[C@H](C=CCCCC)c1ccccc1 ... f
NC(=O)[C@@H]1[C@H]2C(=O)O[C@H](c3ccccc3)[C@H](c3ccccc3)N2[C@H](c2ccccc2OCCO)[C@@]12C(=O)Nc1ccc(C#CCCO)cc12 ... t
COC(=O)c1ccc(OC)c(/C=C\CC(CCc2ccccc2)OC(=O)c2ccncc2)c1 (stereo not drawn) ... f
COC(=O)[C@]1(Cc2ccccc2N=[N+]=[N-])N=C(c2ccc(OCCCO)cc2)O[C@@H]1c1ccccc1 ... t
CCCCC=C[C@@H](NC(=O)CCc1ccccc1)c1ccccc1 ... t
CN1C(=O)C2C=CC(C(O)C3CCCCC3)N(N(c3ccccc3)c3ccccc3)C2C1=O (stereo not drawn) ... f
C[N+](C)(C)CCCCNC(=O)[C@H]1C[C@H]2C(=O)NCC(=O)N2[C@H]1c1ccc(O)cc1 ... t
O=c1c2ccc(Br)cc2nc(-c2ccccc2)n1Cc1cccc(O)c1 ... f
C=CCOC(=O)[C@H]1[C@@H]2C(=O)O[C@@H](c3ccccc3)[C@@H](c3ccccc3)N2[C@@H](c2ccc(OCCOC(=O)[C@H]3C[C@H]4C(=O)N[C@@H](CCCCN(C)C)C(=O)N4[C@H]3c3ccc(O)cc3)cc2)[C@]12C(=O)Nc1ccccc12 ... f
CCOC(=O)C[C@H]1[C@H](OC(=O)c2ccccc2-c2ccccc2)[C@@H](NC(=O)c2ccccc2)c2cc(OCCCO)ccc2N1C(=O)Cc1ccc(OC)cc1 ... f
